System: Fibroblast
Assay: Multiplex assay against human fibroblast
Assay type: toxicity, cell-based
Conditions: 12 h, 1 µM, compound concentration 1 uM, replicate 2
measured endpoint: Population Fragmented Nuclei (%)
All answers are understood in %, so give the number only.

*Q* Fetch value of Population Fragmented Nuclei (%) on Fibroblast for Cc1nn(C)c2nc(NNC(=O)Nc3cc(Cl)nc(Cl)c3)cc(C(C)C)c12 .
*A* 31

*Q* Fetch value of Population Fragmented Nuclei (%) on Fibroblast for Cc1ccc(OCC(O)C(C)NC(C)C)c2c1CCC2.Cl (stereo not given) .
*A* 17

*Q* Fetch value of Population Fragmented Nuclei (%) on Fibroblast for CCCCCCNC(=O)Nc1ccc(S(=O)(=O)Nc2ccc(CCNC[C@H](O)COc3ccc(O)cc3)cc2)cc1 .
*A* 21

*Q* Fetch value of Population Fragmented Nuclei (%) on Fibroblast for CN(C)C/C=C/C(=O)Nc1ccc(C(=O)N2CCCC(Nc3ncc(Cl)c(-c4c[nH]c5ccccc45)n3)C2)cc1 (stereo not given) .
*A* 21

*Q* Fetch value of Population Fragmented Nuclei (%) on Fibroblast for S=C(NCCCc1c[nH]cn1)NCCCN(Cc1ccc(Cl)c(Cl)c1)c1ccc(Br)cn1 .
*A* 30
